# pKi per entry for Cannabinoid receptor 1 (Mus musculus, UniProt P47746)
Interpret pKi as the negative base-10 log of the concentration measured in mol/L.

* CS/C(N)=N\C(=N/S(=O)(=O)c1ccc(C(F)(F)F)cc1)N1CC(c2ccccc2)C(c2ccc(Cl)cc2)=N1 (stereo not given) | 7.20
* CNC(=NS(=O)(=O)c1ccc(Cl)cc1)N1CC(c2ccccc2)C(c2ccc(Cl)cc2)=N1 (stereo not given) | 8.09
* CS/C(N)=N\C(=N/S(=O)(=O)c1ccc2ccccc2c1)N1CC(c2ccccc2)C(c2ccc(Cl)cc2)=N1 (stereo not given) | 7.54

IN: Form: Entry = C/C(N)=N\C(=N/S(=O)(=O)c1ccc(C(F)(F)F)cc1)N1CC(c2ccccc2)C(c2ccc(Cl)cc2)=N1 (stereo not given) | System = Cannabinoid receptor 1 (Mus musculus, UniProt P47746) | pKi = ____
OUT: 8.24

IN: Next record, please: CS/C(N)=N\C(=N/S(=O)(=O)c1ccc(I)cc1)N1CC(c2ccccc2)C(c2ccc(Cl)cc2)=N1 (stereo not given)
OUT: 8.00

---

- Test Name: Half life in mouse at 10 mg/kg, po
- Assay type: ADME, organism-based
- Experimental Context: in vivo
Measure Name: half-life (h)
Give the number; h is assumed, so skip it.

IN: If you can, please state the reported half-life value of C/C(N)=N\C(=N/S(=O)(=O)c1ccc(Cl)cc1)N1C[C@H](c2ccccc2)C(c2ccc(Cl)cc2)=N1 .
OUT: 2

---

- Test Name: Oral bioavailability in Sprague-Dawley rat at 10 mg/kg
- Type: ADME, organism-based
- Experimental Context: in vivo
Measure Name: bioavailability (%)
Enter your answer as a number in %; do not include the unit.

IN: Need bioavailability of C/C(N)=N\C(=N/S(=O)(=O)c1ccc(Cl)cc1)N1C[C@H](c2ccccc2)C(c2ccc(Cl)cc2)=N1 , thanks.
OUT: 55

---

- Test Name: Tmax in mouse at 10 mg/kg, po
- Type: ADME, organism-based
- Experimental Context: in vivo
Measure Name: Tmax (h)
Reply with just the number (in h).

IN: Entry C/C(N)=N\C(=N/S(=O)(=O)c1ccc(Cl)cc1)N1C[C@H](c2ccccc2)C(c2ccc(Cl)cc2)=N1 has what Tmax?
OUT: 1

---

- Test Name: Tmax in Sprague-Dawley rat at 10 mg/kg, po
- Type: ADME, organism-based
- Experimental Context: in vivo
Measure Name: Tmax (min)
Please give a number only; it is taken to be in min.

IN: Quick one: Tmax for C/C(N)=N\C(=N/S(=O)(=O)c1ccc(Cl)cc1)N1C[C@H](c2ccccc2)C(c2ccc(Cl)cc2)=N1 ?
OUT: 45

---

- Target Entity: Cannabinoid receptor 1 (Mus musculus, UniProt P47746)
- Sequence (P47746 whole entry): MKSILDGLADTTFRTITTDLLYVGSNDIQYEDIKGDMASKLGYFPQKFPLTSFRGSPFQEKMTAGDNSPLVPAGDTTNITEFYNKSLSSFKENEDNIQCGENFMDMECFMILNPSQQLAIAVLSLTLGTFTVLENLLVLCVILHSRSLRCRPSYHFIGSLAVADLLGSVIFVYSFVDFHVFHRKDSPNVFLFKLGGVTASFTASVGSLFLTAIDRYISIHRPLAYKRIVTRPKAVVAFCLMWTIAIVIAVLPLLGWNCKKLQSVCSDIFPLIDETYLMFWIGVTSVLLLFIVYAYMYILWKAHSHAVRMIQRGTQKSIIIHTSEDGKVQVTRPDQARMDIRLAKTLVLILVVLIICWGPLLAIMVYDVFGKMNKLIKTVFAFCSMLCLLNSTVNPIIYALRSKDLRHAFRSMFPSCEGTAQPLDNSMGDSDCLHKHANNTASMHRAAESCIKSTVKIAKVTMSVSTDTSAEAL
- Test Name: Inverse agonist at mouse brain CB1R expressed in CHOK1 cell membranes assessed as inhibition of CP55940-stimulated [35S]GTP-gammaS binding measured after 60 mins by scintillation spectrometry
Decision: IC50 beneath 100 nM gives 1 (yes); IC50 meeting or exceeding 100 nM gives 0 (no).

• N/C(=N/C(=N\S(=O)(=O)c1ccc(Cl)cc1)N1CC(c2ccccc2)C(c2ccc(Cl)cc2)=N1)c1ccncc1 (stereo not drawn) = 0 (no)
• N/C(=N/C(=N\S(=O)(=O)c1ccc(Cl)cc1)N1CC(c2ccccc2)C(c2ccc(Cl)cc2)=N1)c1ccccc1 (stereo not drawn) = 0 (no)

IN: Please indicate whether the reported IC50 of N/C(COc1ccccc1)=N/C(=N\S(=O)(=O)c1ccc(Cl)cc1)N1CC(c2ccccc2)C(c2ccc(Cl)cc2)=N1 (stereo not drawn) is strictly below 100 nM.
OUT: 0 (no)

IN: Same thing, different compound: C/C(N)=N\C(=N/S(=O)(=O)c1ccc(C)cc1)N1CC(c2ccccc2)C(c2ccc(Cl)cc2)=N1 (stereo not drawn)
OUT: 0 (no)

IN: Do the same for CCS/C(N)=N\C(=N/S(=O)(=O)c1ccc(Cl)cc1)N1CC(c2ccccc2)C(c2ccc(Cl)cc2)=N1 (stereo not drawn) please
OUT: 0 (no)

IN: Queued: C/C(N)=N\C(=N/S(=O)(=O)c1ccc(OC(F)(F)F)cc1)N1CC(c2ccccc2)C(c2ccc(Cl)cc2)=N1 (stereo not drawn)
OUT: 1 (yes)

IN: Then CS/C(N)=N\C(=N/S(=O)(=O)c1ccc(I)cc1)N1CC(c2ccccc2)C(c2ccc(Cl)cc2)=N1 (stereo not drawn) ?
OUT: 1 (yes)

IN: Same question for N/C(=N/C(=N\S(=O)(=O)c1ccc(Cl)cc1)N1CC(c2ccccc2)C(c2ccc(Cl)cc2)=N1)c1ccccc1F (stereo not drawn) please.
OUT: 1 (yes)

---

- Target Entity: Cannabinoid receptor 1 (Mus musculus)
- Test Name: Inverse agonist at mouse brain CB1R expressed in CHOK1 cell membranes assessed as inhibition of CP55940-stimulated [35S]GTP-gammaS binding measured after 60 mins by scintillation spectrometry
Mark met for IC50 under 100 nM, not met if at or over.

// known answers, use as guide
• N/C(=N/C(=N\S(=O)(=O)c1ccc(Cl)cc1)N1CC(c2ccccc2)C(c2ccc(Cl)cc2)=N1)SCCc1ccccc1 (centres undefined) = not met
• C/C(N)=N\C(=N/S(=O)(=O)c1ccc2ccccc2c1)N1CC(c2ccccc2)C(c2ccc(Cl)cc2)=N1 (centres undefined) = not met
• COc1cccc(/C(N)=N\C(=N/S(=O)(=O)c2ccc(Cl)cc2)N2CC(c3ccccc3)C(c3ccc(Cl)cc3)=N2)c1 (centres undefined) = met
• CC(C)(C)/C(N)=N\C(=N/S(=O)(=O)c1ccc(Cl)cc1)N1CC(c2ccccc2)C(c2ccc(Cl)cc2)=N1 (centres undefined) = not met
• N/C(=N/C(=N\S(=O)(=O)c1ccc(Cl)cc1)N1CC(c2ccccc2)C(c2ccc(Cl)cc2)=N1)c1ccc(F)cc1 (centres undefined) = not met
• CC(C)/C(N)=N\C(=N/S(=O)(=O)c1ccc(Cl)cc1)N1CC(c2ccccc2)C(c2ccc(Cl)cc2)=N1 (centres undefined) = not met
• N/C(=N/C(=N\S(=O)(=O)c1ccc(Cl)cc1)N1CC(c2ccccc2)C(c2ccc(Cl)cc2)=N1)c1ccc(F)cc1F (centres undefined) = met
• C/C(N)=N\C(=N/S(=O)(=O)c1ccccc1)N1CC(c2ccccc2)C(c2ccc(Cl)cc2)=N1 (centres undefined) = not met

IN: Input C/C(N)=N\C(=N/S(=O)(=O)c1ccc(C(C)C)cc1)N1CC(c2ccccc2)C(c2ccc(Cl)cc2)=N1 (centres undefined) ; condition: IC50 strictly below 100 nM. Does it hold?
OUT: met

IN: Cool, now C/C(N)=N\C(=N/S(=O)(=O)c1ccc(C(F)(F)F)cc1)N1CC(c2ccccc2)C(c2ccc(Cl)cc2)=N1 (centres undefined)
OUT: met

IN: // query: N/C(=N/C(=N\S(=O)(=O)c1ccc(Cl)cc1)N1CC(c2ccccc2)C(c2ccc(Cl)cc2)=N1)SCc1ccccc1 (centres undefined)
OUT: not met

IN: Item: N/C(=N/C(=N\S(=O)(=O)c1ccc(Cl)cc1)N1CC(c2ccccc2)C(c2ccc(Cl)cc2)=N1)c1cccc(Br)c1 (centres undefined)
OUT: not met

IN: Please do the same for CS/C(N)=N\C(=N/S(=O)(=O)c1ccc2ccccc2c1)N1CC(c2ccccc2)C(c2ccc(Cl)cc2)=N1 (centres undefined) as well.
OUT: not met

---

- Target Entity: Cannabinoid receptor 1 (Mus musculus, UniProt P47746)
- Test Name: Inverse agonist at mouse brain CB1R expressed in CHOK1 cell membranes assessed as inhibition of CP55940-stimulated [35S]GTP-gammaS binding measured after 60 mins by scintillation spectrometry
One threshold, 200 nM, splits the recorded IC50 values: lower ones are 1, equal or higher ones are -1.

Answered cases to consult:
* CS/C(N)=N\C(=N/S(=O)(=O)c1ccc(C(F)(F)F)cc1)N1CC(c2ccccc2)C(c2ccc(Cl)cc2)=N1 (stereo not drawn) | 1
* C/C(N)=N\C(=N/S(=O)(=O)c1ccc(I)cc1)N1CC(c2ccccc2)C(c2ccc(Cl)cc2)=N1 (stereo not drawn) | 1
* C/C(N)=N\C(=N/S(=O)(=O)c1ccc(Br)cc1)N1CC(c2ccccc2)C(c2ccc(Cl)cc2)=N1 (stereo not drawn) | 1
* N/C(=N/C(=N\S(=O)(=O)c1ccc(Cl)cc1)N1CC(c2ccccc2)C(c2ccc(Cl)cc2)=N1)SCCCc1ccccc1 (stereo not drawn) | -1
* N/C(=N/C(=N\S(=O)(=O)c1ccc(Cl)cc1)N1CC(c2ccccc2)C(c2ccc(Cl)cc2)=N1)C1CC1 (stereo not drawn) | -1
* COc1ccc(S(=O)(=O)/N=C(\N=C(/C)N)N2CC(c3ccccc3)C(c3ccc(Cl)cc3)=N2)cc1 (stereo not drawn) | 1
* C/C(N)=N\C(=N/S(=O)(=O)c1ccc(C(C)(C)C)cc1)N1CC(c2ccccc2)C(c2ccc(Cl)cc2)=N1 (stereo not drawn) | 1

Turning to the following compound.
IN: Hello, I'm reviewing records and need to know if IC50 of N/C(=N/C(=N\S(=O)(=O)c1ccc(Cl)cc1)N1CC(c2ccccc2)C(c2ccc(Cl)cc2)=N1)C12CC3CC(CC(C3)C1)C2 (stereo not drawn) is below 200 nM. Could you check?
OUT: -1
